These measurements were taken from PubChem BioAssay (NCI).

# procedureDetails: NCI Yeast Anticancer Drug Screen. Data for the mec2-1 strain (AID 157)
# conditionLabel: S. cerevisiae mec2-1 strain, at 5.0 µM (retest, dose inferred, filed as 0.5)
# Description: Growth inhibition of yeast strains with defined genetic alterations is measured as a screen for potential anti-cancer activity. Selected strains with alterations in DNA damage repair or cell cycle control were exposed to compounds and growth inhibition was measured relative to vehicle treated controls. The strain used in this assay is mec2-1
Compounds without any hit were thinned out: in the full panel of roughly 79,000, 15% have a hit. Activity calls are given as the source filed them. No stated cut-off is given here; in the data, active means growth inhibition above about 70%; inactive means the rest.
Write down the outcome that applies. Available outcomes: label 1 (active), label 0 (inactive)

Example entries begin here.
{"compound": "NC(Cc1ccccc1)c1ccc2cccc3c2c1CC3 (stereo unspecified)", "discreteLabel": "label 0"}
{"compound": "CC(O)C(NC(=O)OCc1ccccc1)C(=O)OC(c1ccccc1)c1ccccc1 (stereo unspecified)", "discreteLabel": "label 0"}
{"compound": "CCC1CCC2C3CC=C4CC(OC(C)=O)C(N)CC4(C)C3CCC12C (stereo unspecified)", "discreteLabel": "label 0"}
{"compound": "O=C(OCc1ccccc1)N(CCCCN(CCCNCc1ccccc1)C(=O)OCc1ccccc1)CCCNCc1ccccc1", "discreteLabel": "label 0"}
{"compound": "CNc1ccc(C(=O)NC(CCCCNC(=O)OCc2ccccc2)C(=O)OC)cc1 (stereo unspecified)", "discreteLabel": "label 0"}

# next compound below
What was the test verdict on `C/C(=N\NC(=S)N(C)C)c1cccnn1` ?
label 1

====

# procedureDetails: NCI Yeast Anticancer Drug Screen. Data for the cln2 rad14 strain (AID 165);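 further: 0% = growth equal to vehicle treated cultures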
# conditionLabel: S. cerevisiae cln2 rad14 strain, at 50.0 µM
The panel holds about 79,000 compounds, 15% with a hit somewhere; the sample as a whole holds those more often. Active and inactive are the calls of the source. No stated cut-off is given here; in the data, active means growth inhibition above about 70%; inactive means the rest.
Write down the outcome that applies. Available outcomes: active, inactive

Example entries begin here.
{"molecule": "CCC(C)CNCCCCCNc1cc(OC)cc2cccnc12 (stereo unspecified)", "discreteLabel": "inactive"}
{"molecule": "O=C(CC(c1ccccc1)N1CCCCC1)OC1c2ccccc2-c2ccccc21 (stereo unspecified)", "discreteLabel": "inactive"}
{"molecule": "N#CC(NNC(=O)c1ccccc1O)c1c(O)ccc2ccccc12 (stereo unspecified)", "discreteLabel": "inactive"}
{"molecule": "Cc1cc2c(cc1O)CC[C@@H]1[C@@H]2CC[C@]2(C)[C@@H](O)CC[C@@H]12", "discreteLabel": "inactive"}
{"molecule": "CC(=O)N(C)NC(=O)c1ccccc1", "discreteLabel": "inactive"}

What was the test verdict on CCCCN(CCCC)CCCC(O)c1c2ccc(Cl)cc2nc2ccc(OC)cc12 (stereo unspecified) ?
inactive

What was the test verdict on `COc1ccc(N=Cc2ccccc2O)cc1` ?
inactive

What was the test verdict on `OCCSCc1cc(Cl)cc(Cl)c1O` ?
inactive

What was the test verdict on `CCOP(=O)(CCC(=O)[C@@]1(O)CC[C@H]2[C@@H]3CCC4=CC(=O)CC[C@]4(C)[C@H]3CC[C@@]21C)OCC` ?
inactive

What was the test verdict on COc1cccc(C(c2cc3c(cc2O)OCO3)N2CCCC2)c1O (stereo unspecified) ?
inactive

What was the test verdict on CC(CCCOC(c1ccccc1)(c1ccccc1)c1ccccc1)OC(=O)Nc1ccccc1 (stereo unspecified) ?
active

====

# procedureDetails: NCI Yeast Anticancer Drug Screen. Data for the sgs1 mgt1 strain (AID 161);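 further: 0% = growth of cultures given vehicle only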
# conditionLabel: S. cerevisiae sgs1 mgt1 strain, at 5.0 µM (retest, dose inferred, filed as 0.5), hits give high values
Compounds without any hit were thinned out: in the full panel of roughly 79,000, 15% have a hit.
Please go through the items and note down their growth inhibition.
Numbers only, in %.

{"compound": "Cc1cccc2c1C1c3c(C)cccc3C(O)CC1CC2O (centres undefined)", "growth inhibition / %": -2}
{"compound": "S=C(NCCc1ccccn1)N/N=C/c1ccccn1", "growth inhibition / %": 7}
{"compound": "CCc1nc2c(O)ccc(O)c2nc1C", "growth inhibition / %": -50}
{"compound": "CCOC(=O)C(C(=O)OCC)c1ccc([N+](=O)[O-])o1", "growth inhibition / %": 8}
{"compound": "CCCCCCCCCCCCCCCC[NH][Ge]([NH]CCCCCCCCCCCCCCCC)([NH]CCCCCCCCCCCCCCCC)[NH]CCCCCCCCCCCCCCCC", "growth inhibition / %": 99}

Here are 4 compounds. What values of growth inhibition were reported for them?
1. CS(=O)(=O)OCC(COS(C)(=O)=O)C(c1ccccc1)c1ccccc1Br (centres undefined)
2. CCOC(=O)c1cnc2cc3cccccc3n2c1=O
3. C[C@]12CC[C@H]3[C@@H](CCC4=CC(=O)CC[C@@]43C)[C@@H]1CC[C@@H]2O[Si](O[C@H]1CC[C@H]2[C@@H]3CCC4=CC(=O)CC[C@]4(C)[C@H]3CC[C@]12C)(O[C@H]1CC[C@H]2[C@@H]3CCC4=CC(=O)CC[C@]4(C)[C@H]3CC[C@]12C)c1ccccc1
4. COC(=O)/C=C/c1c2ccccc2cc2ccccc12

1: 14; 2: 13; 3: -1; 4: 18
